So basically every entry gets a class from its glass transition temperature, ranges being lo (below 60 °C), mid (60 °C to below 200 °C), hi (200 °C or more)

# Molecule, Classification
data = [
    ("*/C=C/C1CC(*)C(C#N)([Si](C)(C)O[Si](C)(C)C)C1 (repeat unit)", "mid"),
    ("*CCCCCCCCCNC(=O)C(OC)C(OC)C(=O)N* (repeat unit)", "mid"),
    ("*Oc1ccc(Oc2ccc(S(=O)c3ccc(Oc4ccc(Oc5cccc(*)n5)cc4)cc3)cc2)cc1 (repeat unit)", "mid"),
    ("*/C=C/C(C)C(*)C(=O)OCCCCCCN(C)c1ccc(N(C)C)cc1 (repeat unit)", "lo"),
    ("*CC(*)C(=O)OCC(F)(F)C(F)(F)OC(F)(F)C(F)(F)C(F)(F)F (repeat unit)", "lo"),
    ("*c1ccc(-c2sc(-c3ccc(-c4cc(SCCCCCCCC)c(*)s4)cc3)cc2SCCCCCCCC)cc1 (repeat unit)", "lo"),
    ("*c1ccc(S(=O)(=O)c2ccc(N3C(=O)c4ccc(Oc5ccc(C(C)(C)c6ccc(Oc7ccc8c(c7)C(=O)N(*)C8=O)cc6)cc5)cc4C3=O)cc2)cc1 (repeat unit)", "hi"),
    ("*CCCCCCCCC(*)Cl (repeat unit)", "lo"),
    ("*Oc1c(C)cc(C(C)(C)c2cc(C)c(OC(*)=O)c(Cl)c2)cc1Cl (repeat unit)", "mid"),
    ("*c1ccc(C(=O)NCCCCCCCCNC(=O)c2ccc(-c3nc4ccccc4nc3*)cc2)cc1 (repeat unit)", "mid"),
    ("*Oc1ccc(S(=O)(=O)c2ccc(OC(=O)c3cccc(C(*)=O)c3)cc2)cc1 (repeat unit)", "hi"),
    ("*Oc1ccc(-c2ccc(OC(=O)c3ccc(-c4ccc(C(*)=O)cc4)cc3-c3ccccc3)cc2)cc1 (repeat unit)", "mid"),
    ("*c1ccc(-c2sc(-c3ccc(-c4cc(CCCCCCCC)c(*)s4)cc3)cc2CCCCCCCC)cc1 (repeat unit)", "lo"),
    ("*CC(*)C(=O)OCCSCCCC#N (repeat unit)", "lo"),
    ("*CCCCCCOc1ccc(/C=C/c2ccc(O*)c3ccccc23)cc1 (repeat unit)", "mid"),
    ("*Oc1ccc(/N=C/C=N/c2ccc(OC(=O)Nc3ccc(Cc4ccc(NC(*)=O)cc4)cc3)cc2)cc1 (repeat unit)", "mid"),
    ("*Oc1cc(CCCCCCCCCCCCC)cc(OC(=O)c2cccc(C(*)=O)c2)c1 (repeat unit)", "lo"),
    ("*c1cc(OCCCCCCCC)cc(N2C(=O)c3ccc(Oc4ccc5c(c4)C(=O)N(*)C5=O)cc3C2=O)c1 (repeat unit)", "mid"),
    ("*Oc1ccc(OC(=O)c2cc(OCCCc3ccccc3)c(C(*)=O)cc2OCCCc2ccccc2)cc1C (repeat unit)", "mid"),
    ("*CC(*)(C)C(=O)OCCOCC[N+](CC)(CC)CCCCS(=O)(=O)O (repeat unit)", "mid"),
    ("*CC(*)c1ccc([Si](C)(C)O[Si](C)(C)C)cc1 (repeat unit)", "lo"),
    ("*CC(*)c1ccc([CH]([Sn]([CH3])([CH3])[CH3])[Sn]([CH3])([CH3])[CH3])cc1 (repeat unit)", "mid"),
    ("*CC(C)(CC)CS* (repeat unit)", "lo"),
    ("*OC(CCCCCCC=C)CC(*)=O (repeat unit)", "lo"),
    ("*c1ccc(OC(=O)c2ccc(C(=O)Oc3ccc(C4(*)c5ccccc5Oc5ccccc54)cc3)cc2)cc1 (repeat unit)", "hi"),
    ("*Nc1ccc(NC(=O)c2cccc(C(*)=O)c2)cc1 (repeat unit)", "hi"),
    ("*Oc1ccc(Oc2ccc(C(=O)c3cccc(NC(=O)c4ccc(C(=O)Nc5cccc(C(=O)c6ccc(*)cc6)c5)cc4)c3)cc2)cc1 (repeat unit)", "hi"),
    ("*c1c(C)cc(Cc2cc(C)c(N3C(=O)c4ccc(Oc5ccc(C(C)(C)c6ccc(Oc7ccc8c(c7)C(=O)N(*)C8=O)cc6)cc5)cc4C3=O)c(C)c2)cc1C (repeat unit)", "hi"),
    ("*C(=O)c1ccc2c(c1)C(=O)N(c1cccc(Cc3ccc(Cc4ccc(Cc5cccc(N6C(=O)c7ccc(*)cc7C6=O)c5)cc4)cc3)c1)C2=O (repeat unit)", "hi"),
]

====

± gives the standard deviation of the reports.
Reported metric: glass transition temperature

# Compound, Recorded result
records = [
    ("*c1ccc(-c2ccc(N3C(=O)c4cc5c(cc4C3=O)C(c3ccccc3)(C(F)(F)F)c3cc4c(cc3O5)C(=O)N(*)C4=O)cc2OC(F)(F)F)c(OC(F)(F)F)c1 (repeat unit)", "400.00 °C"),
    ("*c1ccc2c(c1)C(=O)N(c1ccc(-c3ccc(N4C(=O)c5ccc(C(*)(C(F)(F)F)C(F)(F)F)cc5C4=O)cc3I)c(I)c1)C2=O (repeat unit)", "319.00 °C"),
    ("*C1=C(Cl)C(=O)N(c2ccc(Cc3ccc(N4C(=O)C(Cl)=C(Oc5c(Cl)cc(C(C)(C)c6cc(Cl)c(*)c(Cl)c6)cc5Cl)C4=O)cc3)cc2)C1=O (repeat unit)", "200.00 °C"),
    ("*Oc1c(F)c(F)c(Oc2c(F)c(F)c3c(c2F)C(=O)N(c2ccc(-c4ccc(N5C(=O)c6c(F)c(*)c(F)c(F)c6C5=O)cc4C(F)(F)F)c(C(F)(F)F)c2)C3=O)c(F)c1F (repeat unit)", "312.00 °C"),
    ("*c1ccc2c(c1)C(=O)N(c1c(F)c(F)c(N3C(=O)c4ccc(C(*)(C(F)(F)F)C(F)(F)F)cc4C3=O)c(F)c1F)C2=O (repeat unit)", "375.50 ± 6.4 °C"),
]

====

Reported metric: glass transition temperature

# Compound, Recorded result
rows = [
    ("*c1ccc2c(c1)C(=O)N(c1ccc(Oc3ccc(N4C(=O)c5ccc(C(*)O[Si](C)(C)C)cc5C4=O)cc3)cc1)C2=O (repeat unit)", "210.00 °C"),
    ("*c1ccc(NC(=O)c2cc(C(=O)Nc3ccc(S(*)(=O)=O)cc3)cc(S(=O)(=O)c3ccccc3)c2)cc1 (repeat unit)", "307.00 °C"),
    ("*CCCCCCNC(=O)CCCCCCCCCCCCCCC(=O)N* (repeat unit)", "40.00 °C"),
    ("*C(=O)c1ccc(Oc2ccc(-c3ccc(Oc4ccc(C(=O)c5ccc6c(c5)C(=O)N(c5ccc(Oc7ccc(N8C(=O)c9ccc(*)cc9C8=O)cc7)cc5)C6=O)cc4)cc3)cc2)cc1 (repeat unit)", "233.00 °C"),
]

====

# Molecule, Unit, glass transition temperature
measured = [
    ("*Nc1ccc(NC(=O)c2cc(NC(=O)c3ccccc3)cc(C(*)=O)c2)cc1 (repeat unit)", "°C", 321.00),
    ("*CCCCOC(=O)c1ccc(C(=O)O*)cc1 (repeat unit) [Poly(butylene terephthalate)]", "°C", 44.12),
    ("*CCN(*)C(=O)c1cc(F)c(F)c(F)c1F (repeat unit)", "°C", 97.00),
]

====

glass transition temperature under 200 °C gets Condition met, anything at or over 200 °C gets Condition not met.

# Compound, Classification
data = [
    ("*CC1CCC(COP(=O)(/N=N/c2ccc(-c3ccc(/N=N/P(=O)(O*)OC)cc3)cc2)OC)CC1 (repeat unit)", "Condition met"),
    ("*CCCCCOc1ccc(/C=C/C(=O)OCCN(CCOC(=O)/C=C/c2ccc(O*)cc2)c2ccc(/N=N/c3ccc([N+](=O)[O-])cc3)cc2)cc1 (repeat unit)", "Condition met"),
    ("*Sc1ccc(Nc2ccc(Nc3ccc(*)cc3)cc2)cc1 (repeat unit)", "Condition met"),
    ("*CCC1CC2C(CC(*)C2OC(=O)CCCCCCCCCCOc2ccc(-c3ccc(C#N)cc3)cc2)C1OC(=O)CCCCCCCCCCOc1ccc(-c2ccc(C#N)cc2)cc1 (repeat unit)", "Condition met"),
    ("*c1ccc(NC(=O)Cc2ccc(-c3sc(-c4ccc(CC(=O)Nc5ccc(-c6sc(*)c(-c7ccccc7)c6-c6ccccc6)cc5)cc4)c(-c4ccccc4)c3-c3ccccc3)cc2)cc1 (repeat unit)", "Condition not met"),
    ("*CCCCCOc1ccc(NC(=O)c2cccc(C(=O)Nc3ccc(O*)cc3)c2)cc1 (repeat unit)", "Condition met"),
    ("*c1ccc(Oc2ccc(NC(=O)c3cc(NC(=O)c4ccc(OC(C)=O)cc4)cc(C(=O)Nc4ccc(Oc5ccc(-c6nnc(*)o6)cc5)cc4)c3)cc2)cc1 (repeat unit)", "Condition not met"),
    ("*C(=O)Nc1ccc(C2(c3ccc(N4C(=O)c5ccc(*)cc5C4=O)cc3)CCC(C(C)(C)C)CC2)cc1 (repeat unit)", "Condition not met"),
    ("*CC(CCCCCCOc1ccc(/N=N/c2ccc(C)cc2)cc1)COC(=O)CCCCC(=O)O* (repeat unit)", "Condition met"),
    ("*Oc1ccc(Oc2ccc(S(=O)(=O)c3ccc(*)cc3)cc2)cc1 (repeat unit)", "Condition not met"),
    ("*c1ccc(Oc2ccc(C(=O)c3ccc(C(=O)c4ccc(Oc5ccc(-c6nc(-c7ccccc7)[nH]c6*)cc5)cc4)cc3)cc2)cc1 (repeat unit)", "Condition not met"),
    ("*CC(*)n1c2ccccc2c2ccccc21 (repeat unit) [Poly(N-vinyl carbazole)]", "Condition met"),
    ("*C(=O)Nc1ccc(-c2cc(-c3ccccc3)cc(-c3ccc(NC(=O)c4ccc5c(c4)C(=O)N(c4ccc(Oc6cccc7c(N8C(=O)c9ccc(*)cc9C8=O)cccc67)cc4)C5=O)cc3)n2)cc1 (repeat unit)", "Condition not met"),
    ("*Oc1ccc2ccc(Oc3ccc(C(=O)Nc4ccc(C(C)(C)c5ccc(C(C)(C)c6ccc(NC(=O)c7ccc(*)cc7)cc6)cc5)cc4)cc3)cc2c1 (repeat unit)", "Condition met"),
    ("*CC(*)(C)C(=O)OCCCCCCOc1ccc(C(=O)Oc2ccc(C(=O)/C=C/c3c(C)c4ccccc4n3C)cc2)cc1 (repeat unit)", "Condition met"),
    ("*CC(O)COc1c(C)cc(C(C)(C)c2cc(C)c(OCC(O)COc3ccc(S(=O)(=O)c4ccc(O*)cc4)cc3)c(C)c2)cc1C (repeat unit)", "Condition met"),
    ("*COc1ccc(C(=C(Cl)Cl)c2ccc(O*)cc2)cc1 (repeat unit)", "Condition met"),
    ("*CC(*)c1ccccc1O (repeat unit)", "Condition met"),
    ("*OC(COC(=O)c1ccccc1C(*)=O)COc1ccc(/N=N/c2ccc(C#N)cc2)cc1 (repeat unit)", "Condition met"),
    ("*CC(O)COc1ccc(C(C)(CC)c2ccc(O*)cc2)cc1 (repeat unit)", "Condition met"),
    ("*Oc1ccc(NC(=O)c2cc(NC(=O)CCN3C(=O)c4ccccc4C3=O)cc(C(=O)Nc3ccc(*)cc3)c2)cc1 (repeat unit)", "Condition not met"),
]

From: the PolyMetriX glass transition set
